The measured values listed here are drawn from paper PMC6271609.

# System: T. brucei strain 427 bloodstream forms
# protocol.details: Anti-trypanosomal activity on T. brucei, resazurin dose response
# Format: cell-based, Trypanosoma brucei
# condition.context: Trypanosoma brucei, 72 h, read-out: T. brucei EC50 Values
pEC50: −log10 of the molar value.
property.name: pEC50

Report pEC50 for CC(C)CCC[C@@H](C)[C@H]1CCC2=C3[C@H](O)C[C@H]4C[C@@H](O)CC[C@]4(C)[C@H]3CC[C@@]21C please. < 4.52

###

# System: T. brucei strain 427 bloodstream forms
# protocol.details: Anti-trypanosomal activity on T. brucei, resazurin dose response
# Type: cell-based, Trypanosoma brucei
# condition.context: Trypanosoma brucei, 72 h, bloodstream forms, 3 days incubation, resazurin; read-out: T. brucei EC50 Values
# Protocol: T. brucei strain 427 bloodstream forms were cultivated at 37 °C with 5% CO2 in HMI-9 medium supplemented with 10% FBS. Cultivated parasites (2,500) were seeded in 384 well plates with the natural compounds and incubated for 3 days. […] Then, the parasites were fixed with 4% PFA and the assay plates were read by Victor 3™ (PerkinElmer, Waltham, MA, USA) at 530 nmEx/590 nmEm. […]
pEC50: recorded values
pEC50 is defined as minus the log10 of a concentration measured in mol/L.

Known pEC50 results, listed for orientation:
compound	property.name	readout.number
N=C(N)c1ccc(OCCCCCOc2ccc(C(=N)N)cc2)cc1 [Pentamidine, reference compound]	pEC50	7.82
CC(C)[C@@H](C)CC[C@@H](C)[C@H]1CC[C@H]2[C@@H]3CCC4=CC(=O)CC[C@]4(C)[C@H]3CC[C@]12C [Compound 2, (24S)-ergost-4-ene-3-one]	pEC50	5.26
CC(C)CCC[C@@H](C)[C@H]1CC[C@@H]2[C@]1(C)CC[C@@H]1[C@@]3(C)CC[C@H](O)C[C@@H]3[C@@H](C=O)[C@]12O [Compound 3, astropectenol A]	pEC50	5.93
C=C1CO[C@H]2/C=C(\C)CC[C@@H]3O[C@]3(C)CC/C=C(\C)CC[C@@]12O [Compound 1, laevigatol B]	pEC50	5.27

Could you now consider this next compound?
Report pEC50 for CC(C)CCC[C@@H](C)[C@H]1CC[C@H]2C3=C(CC[C@]12C)[C@@]1(C)CC[C@H](O)C[C@]1(O)[C@H](O)[C@H]3O [Compound 4, cholest-8-ene-3β,5α,6β,7α-tetraol] please. 4.84

###

# protocol.details: Cytotoxicity assay, resazurin, HepG2
# Assay type: cell-based, human
# condition.context: human; HepG2, 3 days, highest concentration 100 µM; read-out: Cytotoxicity CC50 Values HepG2
property.name: CC50 at 3 days

Report CC50 at 3 days for CC(C)CCC[C@@H](C)[C@H]1CCC2=C3[C@H](O)C[C@H]4C[C@@H](O)CC[C@]4(C)[C@H]3CC[C@@]21C [Compound 5, 5α-cholest-8(14)-ene-3β,7α-diol] please. > 100 µM

###

# Tested on: T. brucei strain 427 bloodstream forms
# protocol.details: Anti-trypanosomal activity on T. brucei, resazurin dose response
# Format: cell-based, Trypanosoma brucei
# condition.context: bloodstream forms, 3 days incubation, resazurin; read-out: T. brucei EC50 Values
property.name: EC50 (nM)
The figure you give is taken to be in nM; do not add the unit.

Report EC50 for CC(C)CCC[C@@H](C)[C@H]1CC[C@@H]2[C@]1(C)CC[C@@H]1[C@@]3(C)CC[C@H](O)C[C@@H]3[C@@H](C=O)[C@]12O [Compound 3, astropectenol A] please. 1570

###

# protocol.details: Cytotoxicity assay, resazurin, HepG2
# Assay type: cell-based, human
# condition.context: human
property.name: CC50 at 3 days

Report CC50 at 3 days for CC(C)CCC[C@@H](C)[C@H]1CC[C@H]2C3=C(CC[C@]12C)[C@@]1(C)CC[C@H](O)C[C@]1(O)[C@H](O)[C@H]3O please. > 100 µM

###

CC50 at 3 days: recorded values
# protocol.details: Cytotoxicity assay, resazurin, HepG2
# Type: cell-based, human
# condition.context: human, HepG2 cells; HepG2, 3 days, highest concentration 100 µM; read-out: Cytotoxicity CC50 Values HepG2

Known CC50 at 3 days results, listed for orientation:
compound	CC50 at 3 days
CC(C)CCC[C@@H](C)[C@H]1CC[C@@H]2[C@]1(C)CC[C@@H]1[C@@]3(C)CC[C@H](O)C[C@@H]3[C@@H](C=O)[C@]12O [Compound 3, astropectenol A]	> 100 µM
CN(C)CCCN1c2ccccc2Sc2ccc(Cl)cc21 [Chlorpromazine, reference compound]	16.5 µM

Report CC50 at 3 days for CC(C)[C@@H](C)CC[C@@H](C)[C@H]1CC[C@H]2[C@@H]3CCC4=CC(=O)CC[C@]4(C)[C@H]3CC[C@]12C [Compound 2, (24S)-ergost-4-ene-3-one] please. > 100 µM

Report CC50 at 3 days for N=C(N)c1ccc(OCCCCCOc2ccc(C(=N)N)cc2)cc1 [Pentamidine, reference compound] please. < 0.4 µM

Report CC50 at 3 days for C=C1CO[C@H]2/C=C(\C)CC[C@@H]3O[C@]3(C)CC/C=C(\C)CC[C@@]12O [Compound 1, laevigatol B] please. > 100 µM
